Test system: methicillin-resistant Staphylococcus aureus (MRSA)
Assay: Effect on decreasing antibiotic resistance by concomitant use of FNQ3, MRSA
Conditions: concomitant FNQ3, final concentration 0.5 μg/ml
property: MIC of antibiotic, +FNQ3 (µg/mL)
One number for each entry, in µg/mL.

{"structureSmilesString": "N[C@@H](C(=O)N[C@@H]1C(=O)N2C(C(=O)O)=C(Cl)CS[C@H]12)c1ccccc1", "units": "µg/mL", "MIC of antibiotic, +FNQ3": 16}
{"structureSmilesString": "CC[C@H]1OC(=O)[C@H](C)[C@@H](O[C@H]2C[C@@](C)(OC)[C@@H](O)[C@H](C)O2)[C@H](C)[C@@H](O[C@@H]2O[C@H](C)C[C@H](N(C)C)[C@H]2O)[C@](C)(OC)C[C@@H](C)C(=O)[C@H](C)[C@@H](O)[C@]1(C)O", "units": "µg/mL", "MIC of antibiotic, +FNQ3": 16}
{"structureSmilesString": "CC1(C)S[C@@H]2[C@H](NC(=O)[C@H](N)c3ccccc3)C(=O)N2[C@H]1C(=O)O", "units": "µg/mL", "MIC of antibiotic, +FNQ3": 4}

Hey, can you go through the list below and give me MIC of antibiotic, +FNQ3 for every item?
1. C[C@H]1COc2c(N3CCN(C)CC3)c(F)cc3c(=O)c(C(=O)O)cn1c23
2. CC[C@H]1OC(=O)[C@H](C)[C@@H](O[C@H]2C[C@@](C)(OC)[C@@H](O)[C@H](C)O2)[C@H](C)[C@@H](O[C@@H]2O[C@H](C)C[C@H](N(C)C)[C@H]2O)[C@](C)(O)C[C@@H](C)/C(=N\OCOCCOC)[C@H](C)[C@@H](O)[C@]1(C)O

**Result**
[4, 16]

====

Would you kindly list log10(MIC) for each of these compounds?
Test system: methicillin-sensitive Staphylococcus aureus (MSSA)
Test: Effect on decreasing antibiotic resistance by concomitant use of FNQ3, MSSA
Conditions: Staphylococcus aureus, 24 h, read-out: MIC of antibiotic, −FNQ3
Kindly note that the scale is log10 and the underlying MIC is in µg/mL.

Please review the following examples before continuing.
{"structureSmilesString": "CC[C@H]1OC(=O)[C@H](C)[C@@H](O[C@H]2C[C@@](C)(OC)[C@@H](O)[C@H](C)O2)[C@H](C)[C@@H](O[C@@H]2O[C@H](C)C[C@H](N(C)C)[C@H]2O)[C@](C)(O)C[C@@H](C)/C(=N\\OCOCCOC)[C@H](C)[C@@H](O)[C@]1(C)O", "log10(MIC)": 0.00}
{"structureSmilesString": "N[C@@H](C(=O)N[C@@H]1C(=O)N2C(C(=O)O)=C(Cl)CS[C@H]12)c1ccccc1", "log10(MIC)": 0.00}
{"structureSmilesString": "C[C@H]1COc2c(N3CCN(C)CC3)c(F)cc3c(=O)c(C(=O)O)cn1c23", "log10(MIC)": -0.60}
{"structureSmilesString": "CC1(C)S[C@@H]2[C@H](NC(=O)[C@H](N)c3ccccc3)C(=O)N2[C@H]1C(=O)O", "log10(MIC)": 1.51}
{"structureSmilesString": "CN[C@H](CC(C)C)C(=O)N[C@H]1C(=O)N[C@@H](CC(N)=O)C(=O)N[C@H]2C(=O)N[C@H]3C(=O)N[C@H](C(=O)N[C@H](C(=O)O)c4cc(O)cc(O)c4-c4cc3ccc4O)[C@H](O)c3ccc(c(Cl)c3)Oc3cc2cc(c3O[C@@H]2O[C@H](CO)[C@@H](O)[C@H](O)[C@H]2O[C@H]2C[C@](C)(N)[C@H](O)[C@H](C)O2)Oc2ccc(cc2Cl)[C@H]1O", "log10(MIC)": -0.22}

I would be grateful if you could provide log10(MIC) for each of the following entries.
1. CN(C)c1ccc(O)c2c1C[C@H]1C[C@H]3[C@H](N(C)C)C(O)=C(C(N)=O)C(=O)[C@@]3(O)C(O)=C1C2=O
2. CC[C@H]1OC(=O)[C@H](C)[C@@H](O[C@H]2C[C@@](C)(OC)[C@@H](O)[C@H](C)O2)[C@H](C)[C@@H](O[C@@H]2O[C@H](C)C[C@H](N(C)C)[C@H]2O)[C@](C)(OC)C[C@@H](C)C(=O)[C@H](C)[C@@H](O)[C@]1(C)O

**Result**
[-0.60, -0.30]

====

Provide the recorded MIC of antibiotic, +FNQ3 for the entries that follow.
Test system: methicillin-resistant Staphylococcus aureus (MRSA)
Assay: Effect on decreasing antibiotic resistance by concomitant use of FNQ3, MRSA
Details: concomitant FNQ3, final concentration 0.5 μg/ml

Reference set (2 entries):
{"structureSmilesString": "CN(C)c1ccc(O)c2c1C[C@H]1C[C@H]3[C@H](N(C)C)C(O)=C(C(N)=O)C(=O)[C@@]3(O)C(O)=C1C2=O", "MIC of antibiotic, +FNQ3": "2 to 4 µg/mL"}
{"structureSmilesString": "CN[C@H](CC(C)C)C(=O)N[C@H]1C(=O)N[C@@H](CC(N)=O)C(=O)N[C@H]2C(=O)N[C@H]3C(=O)N[C@H](C(=O)N[C@H](C(=O)O)c4cc(O)cc(O)c4-c4cc3ccc4O)[C@H](O)c3ccc(c(Cl)c3)Oc3cc2cc(c3O[C@@H]2O[C@H](CO)[C@@H](O)[C@H](O)[C@H]2O[C@H]2C[C@](C)(N)[C@H](O)[C@H](C)O2)Oc2ccc(cc2Cl)[C@H]1O", "MIC of antibiotic, +FNQ3": "0.6 to 1.25 µg/mL"}

Next up:
**Query** // query MIC of antibiotic, +FNQ3 value for entry CN(C)CCn1nnnc1SCC1=C(C(=O)O)N2C(=O)[C@@H](NC(=O)Cc3csc(N)n3)[C@H]2SC1
**Result** 16 to 32 µg/mL
